- protocolNotes: Pharmacokinetics: blood residual concentration after intraperitoneal injection
- Type: in vivo, C57BL/6J
- testParameters: C57BL/6J, mouse, plasma, ip, 13.5 mg/kg intraperitoneal
readoutType: half-life
Put your answer as a value accompanied by its unit after it.

Lookup: # query: half-life of entry CC1(C)[C@@H](O[C@H]2O[C@H](C(=O)O)[C@@H](O)[C@H](O)[C@H]2O[C@@H]2O[C@H](C(=O)O)[C@@H](O)[C@H](O)[C@H]2O)CC[C@]2(C)[C@H]3C(=O)C=C4[C@@H]5C[C@@](C)(C(=O)O)CC[C@]5(C)CC[C@@]4(C)[C@]3(C)CC[C@@H]12
Found: 3.3 h
